Biological target: human P2X7 receptor (Homo sapiens, UniProt Q99572, R270H/Y155H)
Assay: Evaluation of human P2X7 receptor inhibitory activity (Yo-Pro uptake, BzATP stimulation, FLIPR TETRA)
Format: cell-based
Conditions: antagonistic activity for the human P2X7 receptor; read-out: IC50
Method: Stably expressing cell line (1321N1 cell transfected with the human P2X7 receptor gene (GenBank accession number NM_002562.5 including T606C and G952A SNP)) was used. […] Measurement of fluorescence intensity by FLIPR TETRA was started. […] Changing values of fluorescence intensity by the compound of the present invention were calculated by difference between maximum and minimum fluorescence intensity for 20 minutes. Inhibition ratios (%) were calculated from the following equation: […]
Measured IC50 accompanies every entry in the list below.

Study these solved cases before continuing.
COc1cn(Cc2cc(F)cc(Cl)c2)c(Nc2cc(OC(F)(F)F)ccc2C)nc1=O [Compound I-0694] ... 100 to 500 nM
COc1cn(Cc2cc(F)cc(F)c2)c(Nc2cc(-c3cccnc3)ccc2C)nc1=O [Compound I-0766] ... < 10 nM
COc1cc(Cl)c(Nc2nc(=O)c(F)cn2Cc2cc(F)c(F)c(F)c2)cc1OC [Compound I-1187] ... < 10 nM

Look up IC50 for this compound: COc1cn(Cc2ccc(F)c(Cl)c2)c(Nc2cc(C(C)(C)O)ccc2C)nc1=O [Compound I-0775]
10 to 100 nM
